Values compiled from PubChem BioAssay (NCI).

tested on: OVCAR-8 ovarian; assay: NCI-60 one-dose screen, 48 h (100 = growth as untreated, 0 = no growth, -100 = all killed); settings: 10 µM unless noted
Compounds without any hit were thinned out: in the full panel of roughly 83,000, 20% have a hit. The source made the active and inactive calls. How the source made its calls: active means growth percent below 10; inactive means the rest.
observed_property: growth

Would you please look over these solved cases?
compound | growth
Cn1cc(-c2csc(-c3c[nH]c4ncccc34)n2)c2cc(F)cnc21 | 77.5% (inactive)
O=C(Nc1ccc(Oc2ccc(NC(=O)Nc3ccc([N+](=O)[O-])cc3)cc2)cc1)Nc1ccc([N+](=O)[O-])cc1 | 10.1% (inactive)

Provide growth value for the following compound: `O=C(O)c1ccc(NC(=O)c2ccc(Nc3ccnc(C(F)(F)F)c3)cc2)cc1`
102% (inactive)

Provide growth value for the following compound: `Cc1cc(NCCCNc2ccnc3cc(Cl)ccc23)nc(N2CCN(C)CC2)n1`
77.1% (inactive)

Provide growth value for the following compound: `Cc1cc2cn3c4cccnc4[nH]c(=O)c3c2cc1C`
-46.1% (active)

Provide growth value for the following compound: `CCN1CCN(c2cc(-c3cn[nH]c3-c3cc(C)cc(OC)c3)nc(-c3cccnc3)n2)CC1`
79.6% (inactive)

Provide growth value for the following compound: `CN1C(=O)/C(=C/c2nc(-c3cccc(F)c3)n3ccccc23)c2ccccc21`
34.9% (inactive)

Provide growth value for the following compound: `CCCCCCCCCCSc1ncnc2nc[nH]c12`
67.5% (inactive)

Provide growth value for the following compound: CCCCC1Nc2nc(SC)n(C)c(=O)c2CN(Cc2ccccc2)C1=O (stereo not drawn)
99.9% (inactive)

Provide growth value for the following compound: O=C1C2C3C=CC(O3)C2C(=O)N1Nc1ccccc1 (stereo not drawn)
105% (inactive)

Provide growth value for the following compound: `CN(C)c1ccc(/C=C\c2ccnc3ccccc23)cc1`
63.6% (inactive)
